- System: Danio rerio Tg(wt1b:EGFP) embryo, pronephros
- assay.overview: glomerular separation, fold change vs DMSO control; higher = glomeruli further apart (abnormal)
- experimental.parameters: 25 µM; exposure: 24-48 hpf
Measured glomerular separation, listed per entry for reference.
readout: glomerular separation

{"compound": "CC(=O)NC[C@H]1CN(c2ccc(N3CCOCC3)c(F)c2)C(=O)O1 [Linezolid]", "system.name": "Danio rerio Tg(wt1b:EGFP) embryo, pronephros", "observed.value": 0.987}
{"compound": "CC(C)/N=c1\\cc2n(-c3ccc(Cl)cc3)c3ccccc3nc-2cc1Nc1ccc(Cl)cc1 [Clofazimine]", "system.name": "Danio rerio Tg(wt1b:EGFP) embryo, pronephros", "observed.value": 1.02}
{"compound": "Nc1ccccc1S(N)(=O)=O [2-Aminobenzenesulfonamide]", "system.name": "Danio rerio Tg(wt1b:EGFP) embryo, pronephros", "observed.value": 0.99}

----------
- Test system: Danio rerio Tg(wt1b:EGFP) embryo, pronephros
- assay.overview: glomerular width (mean of left and right), fold change vs DMSO control; higher = wider glomerulus
- experimental.parameters: 25 µM; exposure: 24-48 hpf

{"molecule": "CCN1CCN(C(=O)N[C@@H](C(=O)N[C@@H]2C(=O)N3C(C(=O)O)=C(CSc4nnnn4C)CS[C@H]23)c2ccc(O)cc2)C(=O)C1=O [Cefoperazone dihydrate]", "system.name": "Danio rerio Tg(wt1b:EGFP) embryo, pronephros", "glomerular width": 1.01}
{"molecule": "COc1ccc2cc(CCC(C)=O)ccc2c1", "system.name": "Danio rerio Tg(wt1b:EGFP) embryo, pronephros", "glomerular width": 1}
{"molecule": "O=C(NCCN1CCOCC1)c1ccc(Cl)cc1 [Moclobemide]", "system.name": "Danio rerio Tg(wt1b:EGFP) embryo, pronephros", "glomerular width": 1.01}

----------
- Test system: Danio rerio Tg(wt1b:EGFP) embryo, pronephros
- assay.overview: pronephric angle neck segment to proximal convoluted tubule (mean of left and right), fold change vs DMSO control; higher = larger pronephric angle
- experimental.parameters: 25 µM; exposure: 24-48 hpf
Each entry below carries its reported pronephric angle neck segment.

{"molecule": "O=C(O)c1ccccc1OP(=O)(O)O [Fosfosal]", "pronephric angle neck segment": 0.963}
{"molecule": "CCC1(C)CC(=O)NC1=O (stereo not drawn) [Ethosuximide]", "pronephric angle neck segment": 0.972}
{"molecule": "COCC1=C(C(=O)OC(C)OC(=O)OC(C)C)N2C(=O)[C@@H](NC(=O)/C(=N\\OC)c3csc(N)n3)[C@H]2SC1 (stereo partly drawn) [Cefpodoxime proxetil]", "pronephric angle neck segment": 1.05}

----------
Item-by-item account of glomerular width
- System: Danio rerio Tg(wt1b:EGFP) embryo, pronephros
- assay.overview: glomerular width (mean of left and right), fold change vs DMSO control; higher = wider glomerulus
- experimental.parameters: 25 µM; exposure: 24-48 hpf
Structures can show the parent of a compound that is named as a salt.

{"compound": "c1ccc2c(CC3=NCCN3)cccc2c1 [Naphazoline hydrochloride]", "system.name": "Danio rerio Tg(wt1b:EGFP) embryo, pronephros", "glomerular width": 1}
{"compound": "COc1cc2nc(N(C)CCCNC(=O)C3CCCO3)nc(N)c2cc1OC (centres undefined) [Alfuzosin hydrochloride]", "system.name": "Danio rerio Tg(wt1b:EGFP) embryo, pronephros", "glomerular width": 1.01}
{"compound": "Nc1ccn([C@@H]2O[C@H](CO)[C@@H](O)C2(F)F)c(=O)n1", "system.name": "Danio rerio Tg(wt1b:EGFP) embryo, pronephros", "glomerular width": 0.99}
{"compound": "CCn1cc(C(=O)O)c(=O)c2cc(F)c(N3CCN(C)CC3)cc21", "system.name": "Danio rerio Tg(wt1b:EGFP) embryo, pronephros", "glomerular width": 1.01}
{"compound": "NCc1ccccc1CC(=O)N[C@@H]1C(=O)N2C(C(=O)O)=C(CSc3nnnn3CC(=O)O)CS[C@H]12 [Ceforanide]", "system.name": "Danio rerio Tg(wt1b:EGFP) embryo, pronephros", "glomerular width": 0.949}
{"compound": "COc1ccc(NS(=O)(=O)c2ccc(N)cc2)nn1", "system.name": "Danio rerio Tg(wt1b:EGFP) embryo, pronephros", "glomerular width": 1.03}
{"compound": "CC(C)(C)NC[C@@H](O)COc1cccc2c1CCCC2=O [(+) -Levobunolol hydrochloride]", "system.name": "Danio rerio Tg(wt1b:EGFP) embryo, pronephros", "glomerular width": 0.935}
{"compound": "CC(CN(C)C)CN1c2ccccc2CCc2ccccc21 (centres undefined) [Trimipramine maleate salt]", "system.name": "Danio rerio Tg(wt1b:EGFP) embryo, pronephros", "glomerular width": 1.06}
{"compound": "CCN(CC)Cc1cc(Nc2ccnc3cc(Cl)ccc23)ccc1O [Amodiaquin dihydrochloride dihydrate]", "system.name": "Danio rerio Tg(wt1b:EGFP) embryo, pronephros", "glomerular width": 0.999}

----------
- Tested on: Danio rerio Tg(wt1b:EGFP) embryo, pronephros
- assay.overview: pronephric angle neck segment to proximal convoluted tubule (mean of left and right), fold change vs DMSO control; higher = larger pronephric angle
- experimental.parameters: 25 µM; exposure: 24-48 hpf
Counter-ions that a name gives are not always drawn.
Listed here are compounds together with their documented pronephric angle neck segment.

{"compound": "CC(C)C(=O)c1c(C(C)C)nn2ccccc12", "pronephric angle neck segment": 1.01}
{"compound": "COc1ccc(OC)c(C(O)CNC(=O)CN)c1 (stereo not drawn) [Midodrine hydrochloride]", "pronephric angle neck segment": 0.765}
{"compound": "CCN(CC)C(=S)SSC(=S)N(CC)CC", "pronephric angle neck segment": 1.7}

----------
- Tested on: Danio rerio Tg(wt1b:EGFP) embryo, pronephros
- assay.overview: glomerular width (mean of left and right), fold change vs DMSO control; higher = wider glomerulus
- experimental.parameters: 25 µM; exposure: 24-48 hpf
Structures can show the parent of a compound that is named as a salt.
Threshold check on glomerular width: at or above 1 gives 1, strictly below gives 0.

{"molecule": "CCc1ccc(CCOc2ccc(CC3SC(=O)NC3=O)cc2)nc1 (configuration not stated) [Pioglitazone]", "group": 1}
{"molecule": "O=C(CCNNC(=O)c1ccncc1)NCc1ccccc1 [Nialamide]", "group": 0}
{"molecule": "C#C[C@]1(OC(C)=O)CC[C@H]2[C@@H]3CCC4=CC(=NO)CC[C@@H]4[C@H]3CC[C@@]21CC (mixture of isomers) [Norgestimate]", "group": 0}
{"molecule": "CC(=O)Oc1ccc(C(c2ccc(OC(C)=O)cc2)c2ccccn2)cc1 [Bisacodyl]", "group": 0}
{"molecule": "COC(=O)[C@H](c1ccccc1Cl)N1CCc2sccc2C1 [Clopidogrel]", "group": 0}
{"molecule": "COc1ccc(Cl)cc1C(=O)NCCc1ccc(S(=O)(=O)NC(=O)NC2CCCCC2)cc1 [Glibenclamide]", "group": 1}
{"molecule": "CCn1cc(C(=O)O)c(=O)c2cc(F)c(N3CCNCC3)nc21 [Enoxacin]", "group": 0}
{"molecule": "CC=CC1=C(C(=O)O)N2C(=O)[C@@H](NC(=O)[C@H](N)c3ccc(O)cc3)[C@H]2SC1 [Cefprozil]", "group": 1}
{"molecule": "Nc1ncnc2c1ncn2C1OC(COP(=O)(O)O)C(O)C1O (configuration not stated) [Adenosine 5'-monophosphate monohydrate]", "group": 1}
{"molecule": "CN1CCC(=C2c3ccccc3CCc3cccnc32)CC1 [Azatadine maleate]", "group": 0}
{"molecule": "CC(=O)O[C@H]1C[C@@H]2CC[C@@H]3[C@H](CC[C@@]4(C)[C@H]3C[C@H]([N+]3(C)CCCCC3)[C@@H]4OC(C)=O)[C@@]2(C)C[C@@H]1N1CCCCC1 [Vecuronium bromide]", "group": 0}
{"molecule": "CO[C@@H]1[C@@H](OC(N)=O)[C@@H](O)[C@H](Oc2ccc3c(O)c(NC(=O)c4ccc(O)c(CC=C(C)C)c4)c(=O)oc3c2C)OC1(C)C [Novobiocin sodium salt]", "group": 1}
{"molecule": "CO/N=C(\\C(=O)N[C@@H]1C(=O)N2C(C(=O)O)=C(COC(C)=O)CS[C@H]12)c1csc(N)n1 [Cefotaxime sodium salt]", "group": 0}
{"molecule": "Cc1cnc(NC(=O)C2=C(O)c3ccccc3S(=O)(=O)N2C)s1 [Meloxicam]", "group": 0}
{"molecule": "O=S(=O)(O)CCS [Mesna]", "group": 1}
{"molecule": "COCCOC(=O)C1=C(C)NC(C)=C(C(=O)OC/C=C/c2ccccc2)C1c1cccc([N+](=O)[O-])c1 (configuration not stated) [Cilnidipine]", "group": 0}
{"molecule": "NC(Cc1cc(I)c(Oc2cc(I)c(O)c(I)c2)c(I)c1)C(=O)O (configuration not stated) [Thyroxine (L)]", "group": 1}
{"molecule": "CN(C)CCCSC(=N)N [Dimaprit dihydrochloride]", "group": 1}
{"molecule": "CCCCCCCN(CC)CCCC(O)c1ccc(NS(C)(=O)=O)cc1 (configuration not stated) [Ibutilide fumarate]", "group": 1}
{"molecule": "COc1cc(NS(=O)(=O)c2ccc(N)cc2)nc(OC)n1 [Sulfadimethoxine]", "group": 1}

These entries and their values trace back to the supplement of paper PMC7366291.
